- STUDY SYSTEM: HLA-A*24:02
- ASSAY NOTES: IEDB peptide-MHC binding, purified MHC/competitive/radioactivity; filed as Kd, often an IC50 or EC50 that approximates it; bounds were set here for any values at or beyond the usual limits of such assays
- TEST CONTEXT: source organism: Influenza A virus (A/Puerto Rico/8/1934(H1N1))
pKd: −log10 of the molar value.
PROPERTY LABEL: pKd

SEQUENCE RECORD	STUDY SYSTEM	EXPERIMENTAL RESULT
ELRSRYWAI	HLA-A*24:02	≤ 5.30

---

- STUDY SYSTEM: HLA-A*02:01
- ASSAY NOTES: IEDB peptide-MHC binding, purified MHC/competitive/radioactivity; filed as Kd, often an IC50 or EC50 that approximates it; bounds were set here for any values at or beyond the usual limits of such assays
- TEST CONTEXT: source organism: Homo sapiens
pKd: −log10 of the molar value.
PROPERTY LABEL: pKd

SEQUENCE RECORD	PROPERTY LABEL	EXPERIMENTAL RESULT
KRYEGLTQR	pKd	≤ 5.30
RRYQKSTEL	pKd	≤ 5.30
